Test system: Human alphaherpesvirus 1
TEST DETAILS: Antiviral activity against HSV1 KOS infected in human lung fibroblast assessed as inhibition of virus-induced cytopathic effect at 0.32 to 100 uM
Assay type: functional, organism-based
Active and inactive are the calls of the source. The rule behind the calls is not given here.

MOLECULE: CC(C(=O)NNC(=O)NCc1ccccc1)c1cccc(Oc2ccccc2)c1 (stereo unspecified)
inhibition: inactive

MOLECULE: CC(C(=O)NNC(=O)NNC(=O)NO)c1cccc(Cc2ccccc2)c1 (stereo unspecified)
inhibition: inactive

MOLECULE: CC(C(=O)NNC(=O)NCC1CCCCC1)c1cccc(Oc2ccccc2)c1 (stereo unspecified)
inhibition: inactive

MOLECULE: CC(C(=O)NN)c1cccc(Cc2ccccc2)c1 (stereo unspecified)
inhibition: inactive

MOLECULE: CC(C(=O)NNC(=O)NCC1CCCCC1)c1cccc(Cc2ccccc2)c1 (stereo unspecified)
inhibition: inactive

MOLECULE: CC(C(=O)NNC(=O)NOCc1ccccc1)c1cccc(Cc2ccccc2)c1 (stereo unspecified)
inhibition: inactive

Sourced from ChEMBL document CHEMBL2010803
